Biological target: ROCK2 (Homo sapiens, UniProt O75116)
Sequence (O75116 whole entry, looked up): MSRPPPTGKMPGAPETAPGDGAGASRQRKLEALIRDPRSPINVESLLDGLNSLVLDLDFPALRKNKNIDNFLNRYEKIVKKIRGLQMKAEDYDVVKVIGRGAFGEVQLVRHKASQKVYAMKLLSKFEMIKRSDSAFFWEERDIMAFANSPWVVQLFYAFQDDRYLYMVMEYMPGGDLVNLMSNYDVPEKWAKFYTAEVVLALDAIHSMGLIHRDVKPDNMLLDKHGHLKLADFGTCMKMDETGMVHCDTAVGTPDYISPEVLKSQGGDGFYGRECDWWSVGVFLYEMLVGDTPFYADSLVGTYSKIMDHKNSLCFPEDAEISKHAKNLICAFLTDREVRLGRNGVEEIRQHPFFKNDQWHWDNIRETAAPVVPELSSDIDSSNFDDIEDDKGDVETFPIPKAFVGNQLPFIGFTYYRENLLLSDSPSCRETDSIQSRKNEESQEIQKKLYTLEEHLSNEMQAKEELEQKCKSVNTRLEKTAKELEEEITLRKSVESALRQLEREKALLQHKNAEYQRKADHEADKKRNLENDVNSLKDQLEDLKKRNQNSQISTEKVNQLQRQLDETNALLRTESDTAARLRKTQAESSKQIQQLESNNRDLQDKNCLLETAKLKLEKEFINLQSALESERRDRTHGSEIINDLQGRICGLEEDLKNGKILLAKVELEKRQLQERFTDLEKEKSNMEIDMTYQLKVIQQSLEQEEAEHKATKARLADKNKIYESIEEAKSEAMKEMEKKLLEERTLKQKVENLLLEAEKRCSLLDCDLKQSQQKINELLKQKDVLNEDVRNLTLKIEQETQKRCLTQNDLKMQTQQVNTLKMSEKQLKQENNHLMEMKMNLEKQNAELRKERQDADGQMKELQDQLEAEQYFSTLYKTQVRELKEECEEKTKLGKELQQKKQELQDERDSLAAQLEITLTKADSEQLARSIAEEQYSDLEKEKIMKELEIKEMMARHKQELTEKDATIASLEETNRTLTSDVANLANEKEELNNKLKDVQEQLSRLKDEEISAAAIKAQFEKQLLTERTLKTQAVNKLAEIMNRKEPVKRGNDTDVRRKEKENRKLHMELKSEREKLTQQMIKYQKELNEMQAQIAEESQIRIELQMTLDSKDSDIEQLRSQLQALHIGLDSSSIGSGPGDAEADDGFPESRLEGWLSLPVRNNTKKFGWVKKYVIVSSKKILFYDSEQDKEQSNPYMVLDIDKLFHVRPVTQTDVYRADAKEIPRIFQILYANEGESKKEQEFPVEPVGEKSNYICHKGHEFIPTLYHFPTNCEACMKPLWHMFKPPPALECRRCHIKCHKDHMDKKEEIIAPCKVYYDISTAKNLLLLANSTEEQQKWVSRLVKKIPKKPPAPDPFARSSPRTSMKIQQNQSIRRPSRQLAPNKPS
Rule: IC50 below 80 nM gives Condition met, anything at or above gives Condition not met.

// below: answered compounds
[
  {
    "Compound": "O=C1NCc2cc(Nc3nc(-c4ccc5c(c4)CN(C(=O)OC4CC(F)(F)C4)C5)ncc3F)ccc21 [C30]",
    "Label": "Condition not met"
  },
  {
    "Compound": "O=C(CCC(F)(F)F)N1Cc2ccc(-c3ncc(F)c(Nc4ccc5c(=O)[nH]ccc5c4)n3)cc2C1 [C63]",
    "Label": "Condition met"
  },
  {
    "Compound": "O=C1NCCc2cc(Nc3nc(-c4ccc5c(c4)CN(C(=O)CCC(F)(F)F)C5)ncc3F)ccc21 [C64]",
    "Label": "Condition not met"
  },
  {
    "Compound": "CC(OC(=O)N1CCc2sc(-c3ncc(F)c(Nc4ccc5c(=O)[nH]ccc5c4)n3)cc2C1)C(F)(F)F (stereo not drawn) [C46]",
    "Label": "Condition met"
  },
  {
    "Compound": "CN(CC(F)(F)F)C(=O)N1Cc2ccc(-c3ncc(F)c(Nc4ccc5c(c4)CCNC5=O)n3)cc2C1 [C78]",
    "Label": "Condition met"
  },
  {
    "Compound": "O=C1NCCc2cc(Nc3nc(-c4ccc5c(c4)CN(C(=O)N4CC(F)(F)C4)C5)ncc3F)ccc21 [C81]",
    "Label": "Condition not met"
  }
]

In the record for O=C(N1CCc2cc(-c3nccc(Nc4ccc5c(=O)[nH]ccc5c4)n3)ccc2C1)N1CC(F)(F)C1 [C44] , is IC50 less than 80 nM?
Condition met

In the record for O=C(N1Cc2ccc(-c3ncc(F)c(Nc4ccc5c(=O)[nH]ccc5c4)n3)cc2C1)N1CC(F)(F)C1 [C79] , is IC50 less than 80 nM?
Condition met

In the record for CC(OC(=O)N1CCc2cc(-c3nccc(Nc4ccc5c(c4)CCNC5=O)n3)ccc2C1)C(F)(F)F (stereo not drawn) [C40] , is IC50 less than 80 nM?
Condition not met

In the record for CC(C)(C)CC(=O)N1CCc2sc(-c3nccc(Nc4ccc5c(=O)[nH]ccc5c4)n3)cc2C1 [C57] , is IC50 less than 80 nM?
Condition met

In the record for O=C(C1CC(F)(F)C1)N1Cc2ccc(-c3ncc(F)c(Nc4ccc5c(=O)[nH]cc(Cl)c5c4)n3)cc2C1 [C5] , is IC50 less than 80 nM?
Condition met

In the record for O=C(c1ccc2c(c1)CN(c1nccc(Nc3ccc4c(=O)[nH]ccc4c3)n1)C2)N1CC(F)(F)C1 [C1] , is IC50 less than 80 nM?
Condition not met

In the record for CC(CC(=O)N1Cc2ccc(-c3nccc(Nc4ccc5c(=O)[nH]ccc5c4)n3)cc2C1)C(F)(F)F (stereo not drawn) [C48] , is IC50 less than 80 nM?
Condition met

In the record for CC(C)(C)OC(=O)N1Cc2ccc(-c3ncc(F)c(Nc4ccc5c(=O)[nH]ccc5c4)n3)cc2C1 [C11] , is IC50 less than 80 nM?
Condition met

In the record for CC(C)(C)OC(=O)N1CCc2sc(-c3ncc(F)c(Nc4ccc5c(c4)CCNC5=O)n3)cc2C1 [C42] , is IC50 less than 80 nM?
Condition met

In the record for CC(C)(C)OC(=O)N1CCc2cc(-c3ncc(F)c(Nc4ccc5c(=O)[nH]ccc5c4)n3)ccc21 [C17] , is IC50 less than 80 nM?
Condition not met

In the record for CC(CC(=O)N1Cc2ccc(-c3ncc(F)c(Nc4ccc5c(c4)CCNC5=O)n3)cc2C1)C(F)(F)F (stereo not drawn) [C67] , is IC50 less than 80 nM?
Condition not met

In the record for CC(OC(=O)N1Cc2ccc(-c3ncc(F)c(Nc4ccc5c(=O)[nH]ccc5c4)n3)cc2C1)C(F)(F)F (stereo not drawn) [C18] , is IC50 less than 80 nM?
Condition met

In the record for O=C(CCC(F)(F)F)N1CCc2cc(-c3ncc(F)c(Nc4ccc5c(=O)[nH]ccc5c4)n3)ccc21 [C70] , is IC50 less than 80 nM?
Condition met

In the record for COCn1c(C(=O)N2CC(F)(F)C2)cc2ccc(-c3ncnc(Nc4ccc5c(=O)[nH]ccc5c4)n3)cc21 [C22] , is IC50 less than 80 nM?
Condition not met

In the record for CC(CC(=O)N1CCc2sc(-c3ncc(F)c(Nc4ccc5c(c4)CCNC5=O)n3)cc2C1)C(F)(F)F (stereo not drawn) [C55] , is IC50 less than 80 nM?
Condition met

In the record for O=C1NCCc2cc(Nc3nc(-c4ccc5c(c4)CN(C(=O)OC4CC(F)(F)C4)C5)ncc3F)ccc21 [C14] , is IC50 less than 80 nM?
Condition met
